# system.name: Sentrin-specific protease 6 (Homo sapiens, UniProt Q9GZR1);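 note: Luminescence-based dose-response confirmatory assay of SENP6 inhibition, following up an ultra-high-throughput screen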
# Sequence (Q9GZR1 whole entry): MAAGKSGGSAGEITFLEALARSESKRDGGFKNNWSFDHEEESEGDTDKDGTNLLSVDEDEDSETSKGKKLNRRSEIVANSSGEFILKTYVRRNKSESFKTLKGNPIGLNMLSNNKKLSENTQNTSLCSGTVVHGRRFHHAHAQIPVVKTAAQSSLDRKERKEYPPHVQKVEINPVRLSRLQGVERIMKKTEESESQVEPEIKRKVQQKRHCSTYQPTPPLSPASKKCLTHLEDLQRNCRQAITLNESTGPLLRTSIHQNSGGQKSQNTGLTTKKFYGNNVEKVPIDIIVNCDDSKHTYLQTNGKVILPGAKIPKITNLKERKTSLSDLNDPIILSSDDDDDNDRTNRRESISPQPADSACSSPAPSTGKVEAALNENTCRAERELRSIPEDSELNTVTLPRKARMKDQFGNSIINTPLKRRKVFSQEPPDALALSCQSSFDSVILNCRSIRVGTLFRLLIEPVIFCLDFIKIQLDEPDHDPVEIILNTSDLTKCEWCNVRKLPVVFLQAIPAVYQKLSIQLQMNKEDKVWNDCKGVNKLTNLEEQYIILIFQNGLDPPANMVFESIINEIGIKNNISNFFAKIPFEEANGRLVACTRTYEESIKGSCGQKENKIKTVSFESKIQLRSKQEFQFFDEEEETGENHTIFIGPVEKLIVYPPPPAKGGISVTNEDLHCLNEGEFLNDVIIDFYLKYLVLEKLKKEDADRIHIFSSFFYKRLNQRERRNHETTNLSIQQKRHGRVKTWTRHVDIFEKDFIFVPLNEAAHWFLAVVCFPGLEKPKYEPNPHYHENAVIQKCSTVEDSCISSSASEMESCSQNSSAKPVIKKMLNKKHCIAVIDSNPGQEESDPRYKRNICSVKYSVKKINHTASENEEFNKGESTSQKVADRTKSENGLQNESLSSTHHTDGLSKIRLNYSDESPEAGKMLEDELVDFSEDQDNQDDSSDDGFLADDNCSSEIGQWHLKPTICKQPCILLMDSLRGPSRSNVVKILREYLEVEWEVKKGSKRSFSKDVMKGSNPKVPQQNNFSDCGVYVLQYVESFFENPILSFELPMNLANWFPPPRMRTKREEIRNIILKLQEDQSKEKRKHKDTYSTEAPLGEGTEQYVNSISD
# Assay type: functional
The source made the active and inactive calls.
Outcome codes: active, inactive

{"columns": ["cpd.smiles", "label.class"],
 "data": [
  ["COC(=O)c1sc(-c2ccc(Cl)cc2)cc1N", "active"],
  ["O=C(Nc1ccc(Br)cc1)c1ccc2c(c1)OCO2", "inactive"],
  ["CCCSC(=N)N/N=C/c1cc(C)ccc1O", "active"],
  ["C(=N\\Nc1nc(-c2ccccc2)cs1)/c1cccs1", "active"]
]}

Where these numbers come from: ChEMBL document CHEMBL1201862
